# pIC50 per entry
Tested on: HH
Experiment: cells;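 note: growth inhibition of HH cells, read out with a cell viability assay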
Type: functional, cell-based, Homo sapiens
Conditions: Homo sapiens, HH
Description: SANGER: Inhibition of human HH cell growth in a cell viability assay.
pIC50: −log10 of the molar value.

compound=COc1cc2c(Nc3ccc(NC(=O)c4ccccc4)cc3)ncnc2cc1OCCCN1CCOCC1 test_result="< 5.40"
compound=COc1cc(-c2nn([C@H]3CC[C@H](N4CCN(C(C)=O)CC4)CC3)c3ncnc(N)c23)ccc1NC(=O)c1cc2ccccc2n1C test_result="< 5.29"
compound=O=C(O)c1ccc(-c2c[nH]c3ncc(-c4ccccc4)cc23)cc1C1CCCC1 test_result="< 4.80"

Challenge: Please give the measured pIC50 for this compound: COc1cc2ncn(-c3cc(OCc4ccccc4S(C)(=O)=O)c(C#N)s3)c2cc1OC [GSK-319347A]
Response given: < 5.30
